Test system: SNB-19
Assay: NCI tumour cell line growth inhibition, 48 h
Activity calls are given as the source filed them. Cut-off read from the data, not from the text of the source: active = GI50 up to about 1.1 µM and inactive = higher.
Pick from true (1) (active), false (0) (inactive) when you respond.

| MOLECULE | CAT |
| --- | --- |
| CCCCn1c(-c2ccc([N+](=O)[O-])cc2)cs/c1=N/N=C1\C(=O)Nc2ccc(Br)cc21 | false (0) |
| Cc1c(CNc2ccc(Cl)c(C(=O)NC(CC(=O)O)C(=O)O)c2)ccc2nc(N)nc(N)c12 (centres undefined) | true (1) |
| CCOC(=O)NC(C(F)(F)F)(C(F)(F)F)P(=O)(OC(C)C)OC(C)C | false (0) |
| C#CCn1c(=O)ccn(/C(=C/C(=O)OCC)C(=O)OCC)c1=O | false (0) |

Hi team, can someone confirm the assay call for Cc1c(-c2ccccc2)[nH]c2cn[nH]c(=O)c12 ?
false (0)

// repeat for CCOC(=O)CC(=O)ON(C)C(=O)Cc1ccccc1 and report
false (0)

Same question, COc1cc2nc(Nc3cccc(Br)c3)nc(Nc3cccc(Br)c3)c2cc1OC this time
false (0)

Next up: [N-]=[N+]=NC1(c2ccccc2)C(=O)c2cccc3c2N(CCC3)C1=O (centres undefined)
false (0)

Field entry: CSc1cc(N)ccc1/N=N/c1ccc(S(N)(=O)=O)cc1
false (0)

###

Provide the recorded GI50 for the entries that follow.
Test system: NCI-H23
Assay: NCI tumour cell line growth inhibition, 48 h
Calls of active or inactive are those of the source. Cut-off read from the data, not from the text of the source: active = GI50 up to about 1.1 µM and inactive = higher.

| COMPOUND | REPORTED_RESULT |
| --- | --- |
| COC1=CC2(C=CC1=O)CCNC1=C2C(=O)c2nc[nH]c2C1=O (stereo not given) | > 100 µM (inactive) |
| CCOC(=O)c1c(SCc2ccccc2)nc2c3ccccc3ccn12 | > 100 µM (inactive) |
| OC1OC2COC(c3ccccc3)OC2C(O)C1O (stereo not given) | > 100 µM (inactive) |
| CC(C)[Si](Oc1cc2c3c(ccc2c(O)c1[C@@H](C)CO[Si](C)(C)C(C)(C)C)C(C)(C)CCC3)(C(C)C)C(C)C | > 100 µM (inactive) |

Continue with the compound presented below.
Fill in the blank: the reported GI50 of CC(C)OC(=O)c1cc(NC(=S)OC(C)C)ccc1Cl is ____.
20.5 µM (inactive)

###

Test system: HOP-62
Experiment: NCI tumour cell line growth inhibition, 48 h
The source made the active and inactive calls. Rule as the data show it: active = GI50 up to about 1.1 µM and inactive = higher.
Could you please report measured GI50 for the items listed next?

| COMPOUND_STRUCTURE_STRING | REPORTED_RESULT |
| --- | --- |
| CCOC(=O)/C=C\[C@H]1OC(C)(C)O[C@H]1[C@H](O)[C@H]1COC(C)(C)O1 | 66.4 µM (inactive) |
| O=C1CCC(=O)c2cc(Br)ccc2N1 | > 100 µM (inactive) |

The record that follows has no GI50 shown yet.
// lookup GI50 for CN(C)c1ncnc2c1ncn2CCn1cnc2c(N(C)C)ncnc21
> 100 µM (inactive)

###

Test system: OVCAR-4
Assay: NCI tumour cell line growth inhibition, 48 h
Activity calls are given as the source filed them. Rule as the data show it: active = GI50 up to about 1.1 µM and inactive = higher.
Please reply with one of these outcomes: active, inactive

Reference set, count: 3
| COMPOUND | CAT |
| --- | --- |
| COc1ccccc1C1c2cc3c(cc2OC2(OC)COC(=O)C12)OCO3 (configuration not stated) | inactive |
| COc1cc(S(=O)(=O)Nc2ccc(-c3csc(/N=C\c4ccccc4)n3)cc2)ccc1Cl | inactive |
| C1CSCC2(COC2)CS1 | inactive |

State the result this test recorded for c1ccc(C2=Nn3c(CCCCCCCCc4nnc5n4N=C(c4ccccc4)CS5)nnc3SC2)cc1 .
inactive

Now consider Cc1cn(C2CC(O)C(COC(=O)c3ccccc3)O2)c(=O)[nH]c1=O (configuration not stated) and answer again.
inactive

Same lookup for C1CC[C@H]2SSC3CCCC[C@H]3SSC2C1 (some centres not stated) , please.
inactive

###

Tested on: SF-295
Experiment: NCI tumour cell line growth inhibition, 48 h
Active and inactive are the calls of the source. Rule as the data show it: active = GI50 up to about 1.1 µM and inactive = higher.
EXPERIMENTAL_ENDPOINT: GI50

// known answers, use as guide
| COMPOUND | GI50 |
| --- | --- |
| [N-]=[N+]=C(C(=O)N1CCCC1=O)S(=O)(=O)c1ccccc1 | > 100 µM (inactive) |
| Cn1c(=O)sc2cc(C(=S)N3CCOCC3)ccc21 | > 100 µM (inactive) |
| CCOC(=O)CC(=O)ON(C)C(=O)Cc1ccccc1 | > 100 µM (inactive) |
| CC1(C)CC(C2=NCCO2)CC(C)(C)N1 | > 100 µM (inactive) |
| Cn1c(=O)n(CC2CS2)c2ccccc21 (stereo unspecified) | > 100 µM (inactive) |

Working through the 7 compounds below one at a time, give GI50 for each.
1. Cc1ccc(S(=O)(=O)NC(=O)NCCc2c[nH]cn2)cc1
2. C=C1C(O)CC[C@]2(C)C1C1OC(C)(C)O[C@]13CC(=O)C(C)=C([C@H]1OC(C)(C)OC12)C3(C)C (stereo partly specified)
3. OC(c1nc2ccccc2s1)(C(F)(F)F)C(F)(F)F
4. CC(C)S(=O)(=O)ON1C(=O)c2ccc(N(C)C)cc2C1=O
5. O=P1(O)c2ccccc2Nc2cc(C(F)(F)F)ccc21
6. COc1ccc(N2C(=O)/C(=C/c3ccc(N(CCC#N)CCC#N)cc3)N=C2c2ccccc2)c(OC)c1
7. O=C(CN1CCN(c2cccc(Cl)c2)CC1)N1CCc2c([nH]c3ccccc23)C1c1cccnc1 (stereo unspecified)

> 100 µM (inactive)
> 100 µM (inactive)
> 100 µM (inactive)
30.9 µM (inactive)
> 100 µM (inactive)
> 100 µM (inactive)
8.53 µM (inactive)

Count: 2. Required value per item: GI50.
1. CC(=O)OC(OC(C)=O)c1ncccc1C(=O)OC(C)C
2. [O-][N+]1(CC[N+]2([O-])CCCCC2)CCCCC1

1. 42.4 µM (inactive)
2. > 100 µM (inactive)

Parameters: items (list). Returns: GI50 for each item.
1. CCCCCCCCCCCCCCCCCCNc1ccn(C2OC(COP(=O)(O)OCC3OC(n4cc(C)c(=O)[nH]c4=O)CC3O)C(O)C2O)c(=O)n1 (stereo unspecified)
2. CCOC(=O)Cc1csc2[n+]1C(=O)/C(=C\c1cccc(Cl)c1Cl)S2
3. COc1ccc2c3ccc4c(c3n(C)c2c1)C(=O)C=CC4=O
4. c1ccc(-c2nnc(-c3ccccn3)c3c2C[C@@H]2C[C@@H]4Cc5c(-c6ccccn6)nnc(-c6ccccn6)c5[C@@H]4[C@H]32)nc1
5. O=Cc1cn(C(=O)c2ccccc2)c2ccccc12
6. Cc1cn(C2CC(O)C(COC(=O)c3ccccc3)O2)c(=O)[nH]c1=O (stereo unspecified)
7. N#CC1(C#N)C2=C(CCCC2)NC(c2ccc(Br)cc2)C1(C#N)C#N (stereo unspecified)

["18.7 µM (inactive)", "15.3 µM (inactive)", "> 100 µM (inactive)", "58.9 µM (inactive)", "38.1 µM (inactive)", "> 100 µM (inactive)", "22.8 µM (inactive)"]

###

Tested on: ACHN
Assay: NCI tumour cell line growth inhibition, 48 h
Activity calls are given as the source filed them. Rule as the data show it: active = GI50 up to about 1.1 µM and inactive = higher.
Use one of these outcomes when replying: Yes = active, No = inactive

| MOLECULE | CAT |
| --- | --- |
| Cc1ccccc1-n1c(=O)c2ncn(CCCl)c2n(-c2ccccc2C)c1=S | No |
| N#CC(NNC(=O)c1ccccc1O)c1ccccc1O (stereo not given) | No |
| O=C1/C(=C/c2cccc([N+](=O)[O-])c2)CCCc2ccccc21 | No |
| CCOC(=O)/C=C\[C@H]1OC(C)(C)O[C@H]1[C@H](O)[C@H]1COC(C)(C)O1 | No |
| Cc1cc(O)nc(NNC(C#N)c2cccc(O)c2)n1 (stereo not given) | No |

Fill in: this test's call for Cc1ccc(C(=O)c2[nH]c(Nc3cc(C)ccn3)c(C(=S)Nc3ccccc3)c2N)cc1 is ___
No

What do you get for O=C(CN1CCN(c2cccc(Cl)c2)CC1)N1CCc2c([nH]c3ccccc23)C1c1cccnc1 (stereo not given) ?
No

And then c1ccc(/C(=N\Nc2nc3ccccc3[nH]2)c2ccccn2)cc1 , what is it?
Yes

Input CCCCCCCCCCCCCCCCOCC(COP(=O)(O)OCC1OC(n2cc(CC)c(=O)[nH]c2=O)CC1O)OC(=O)CCCCCCCCCCCCCCC (stereo not given)
No

// query: O=C(O)CCc1nc2cc3ccccc3cc2[nH]c1=O
No

###

System: SNB-75
Assay: NCI tumour cell line growth inhibition, 48 h
Activity calls are given as the source filed them. Cut-off read from the data, not from the text of the source: active = GI50 up to about 1.1 µM and inactive = higher.
EXPERIMENTAL_ENDPOINT: GI50

Here's what some known entries look like.
| MOLECULE | GI50 |
| --- | --- |
| CN(C)CCN1C(=O)c2ccccc2C1(O)c1ccc(Cl)cc1 (stereo not given) | 83.4 µM (inactive) |
| Cc1ccc(/C=C2\CCC/C(=C\c3ccc(O)c(CN4CCCCC4)c3)C2=O)cc1 | 6.49 µM (inactive) |
| CCOC(=O)NC(C(F)(F)F)(C(F)(F)F)P(=O)(OC(C)C)OC(C)C | > 100 µM (inactive) |
| CC(C)(C)OC(=O)NC1CCCC1C(O)(C1=CCCC1)C1=CCCC1 (stereo not given) | 48.1 µM (inactive) |

Which GI50 value is on record for CN(C(=O)c1ccc(Cl)s1)C(=S)N(C)C(=O)c1ccc(Cl)s1 ?
> 10 µM (inactive)
